B1: PPFIA4 (parent)
chain: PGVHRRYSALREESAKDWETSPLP

- Variants of: B1
- testName: protein stability index of a GFP-peptide fusion (GPS, HEK-293T) (PSI 1-6); higher = more stable;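 further: lentivirally expressed fusions sorted by FACS into six bins by GFP to DsRed ratio, PSI derived from sequencing read proportions per bin multiplied by bin number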
- testSettings: c terminus: a fixed tail appended
attributeMeasured: protein stability index
Give the value as a plain number.

Sample answers from the record:
mutantLabel: S21G
protein stability index: 3.25

mutantLabel: T20G
protein stability index: 4.55

mutantLabel: R6E
protein stability index: 4.88

mutantLabel: R6Q
protein stability index: 4.31

mutantLabel: L23Y
protein stability index: 3.87

mutantLabel: S8Y
protein stability index: 3.79

Req: Provide only the value of recorded protein stability index for P22A
Resp: 4.11

Req: Provide only the value of recorded protein stability index for L23S
Resp: 4.56

Req: Provide only the value of recorded protein stability index for A9V
Resp: 4.12

Req: Provide only the value of recorded protein stability index for P1I
Resp: 4.16

Req: Provide only the value of recorded protein stability index for K16C
Resp: 4.02

Req: Provide only the value of recorded protein stability index for T20Q
Resp: 4.49

Req: Provide only the value of recorded protein stability index for K16L
Resp: 4.05

Req: Provide only the value of recorded protein stability index for P1K
Resp: 4.41

Req: Provide only the value of recorded protein stability index for W18F
Resp: 4.4

Req: Provide only the value of recorded protein stability index for Y7F
Resp: 4.13

Req: Provide only the value of recorded protein stability index for E19V
Resp: 3.24

Req: Provide only the value of recorded protein stability index for L10K
Resp: 4.69

Req: Provide only the value of recorded protein stability index for E19H
Resp: 3.41
